Tested on: TPA induced ear edema in mouse
procedure details: TPA induced mouse ear edema assay
Type: in vivo, mouse (male ICR)
conditions used: 0.1 mg applied to right ear immediately after TPA; 6 hour
readout type: % Inhibition of ear edema (%)

INSERT INTO measurements (molecule, reported_measurement) VALUES
  ('COc1ccc(NC2=C(Br)C(=O)CC2)cc1OC1CCCC1', 55.8),
  ('COc1ccc(N(Cc2ccccc2)C2=CC(=O)CC2)cc1O[C@@H]1C[C@H]2CC[C@@H]1C2 (racemic)', 82.7),
  ('COc1ccc(NC2=C(C)C(=O)CCC2)cc1OC1CCCC1', 64.8),
  ('COc1ccc(N(Cc2ccncc2)C2=CC(=O)CCC2)cc1O[C@@H]1C[C@H]2CC[C@@H]1C2 (racemic)', 70.3);

###

Test system: TPA induced ear edema in mouse
procedure details: TPA induced mouse ear edema assay
Type: in vivo, mouse (male ICR)
conditions used: 0.1 mg applied to right ear immediately after TPA; 6 hour
readout type: % Inhibition of ear edema (%)

INSERT INTO measurements (compound, subject_of_test, readout_type, reported_measurement) VALUES
  ('COc1ccc(NC2=CC(=O)N(Cc3ccccc3)CC2)cc1OC1CCCC1 [Compound No. 22]', 'TPA induced ear edema in mouse', '% Inhibition of ear edema', 76.8),
  ('CCC1=C(Nc2ccc(OC)c(OC3Cc4ccccc4C3)c2)CCC1=O [Compound No. 32]', 'TPA induced ear edema in mouse', '% Inhibition of ear edema', 75.5),
  ('COc1ccc(NC2=CC(=O)CC2)cc1O[C@@H]1C[C@H]2CC[C@@H]1C2 (racemic) [Compound No. 8]', 'TPA induced ear edema in mouse', '% Inhibition of ear edema', 73.1),
  ('COc1ccc(N(Cc2ccc3ccccc3n2)C2=CC(=O)CC2)cc1O[C@@H]1C[C@H]2CC[C@@H]1C2 (relative stereo) [Compound No. 82]', 'TPA induced ear edema in mouse', '% Inhibition of ear edema', 84.4),
  ('COc1ccc(NC2=CC(=O)CCC2)cc1OC1CCCC1 [Compound No. 2]', 'TPA induced ear edema in mouse', '% Inhibition of ear edema', 65.0),
  ('CCC1=C(Nc2ccc(OC)c(O[C@@H]3C[C@H]4CC[C@@H]3C4)c2)CCC1=O (racemic) [Compound No. 45]', 'TPA induced ear edema in mouse', '% Inhibition of ear edema', 75.3),
  ('COc1ccc(N(Cc2ccccc2)C2=CC(=O)CC2)cc1OC1Cc2ccccc2C1 [Compound No. 77]', 'TPA induced ear edema in mouse', '% Inhibition of ear edema', 50.9),
  ('COc1ccc(N(Cc2ccc3ccccc3n2)C2=CC(=O)CC2)cc1OC1Cc2ccccc2C1 [Compound No. 80]', 'TPA induced ear edema in mouse', '% Inhibition of ear edema', 64.4);

###

Test system: TPA induced ear edema in mouse
procedure details: TPA induced mouse ear edema assay
Assay type: in vivo, mouse (male ICR)
conditions used: 0.1 mg applied to right ear immediately after TPA; 6 hour
Decision: % Inhibition of ear edema >= 60% yields rule met, all other cases yield rule not met.

INSERT INTO measurements (molecular_string, qualitative_label) VALUES
  ('COc1ccc(N(C)C2=CC(=O)CCC2)cc1OC1Cc2ccccc2C1', 'rule not met'),
  ('COc1ccc(NC2=CC(=O)CC2)cc1OC1Cc2ccccc2C1', 'rule met'),
  ('COc1ccc(N(Cc2ccc3ccccc3c2)C2=CC(=O)CC2)cc1OC1CCCC1', 'rule met'),
  ('COc1ccc(N(Cc2ccccn2)C2=CC(=O)CC2)cc1OC1CCCC1', 'rule met'),
  ('COc1ccc(N(Cc2ccncc2)C2=C(C)C(=O)CC2)cc1OC1Cc2ccccc2C1', 'rule not met'),
  ('COc1ccc(NC2=C(C)C(=O)CCC2)cc1OCCC1Cc2ccccc2C1', 'rule not met'),
  ('CCCCCN(C1=CC(=O)CC1)c1ccc(OC)c(OC2CCCC2)c1', 'rule not met');

###

Test system: TPA induced ear edema in mouse
procedure details: TPA induced mouse ear edema assay
Format: in vivo, mouse (male ICR)
conditions used: 0.1 mg applied to right ear immediately after TPA; 6 hour
So basically: % Inhibition of ear edema at 70% or higher? That is yes (1). Lower than 70%? That is no (0).

INSERT INTO results (compound, qualitative_label) VALUES
  ('COc1ccc(NC2=C(C)C(=O)CCC2)cc1OC1Cc2ccccc2C1', 'no (0)'),
  ('COc1ccc(NC2=C(C)C(=O)CC2)cc1OC1CCCCC1', 'yes (1)'),
  ('COc1ccc(NC2=C(C)C(=O)CC2)cc1OCCC1Cc2ccccc2C1', 'no (0)'),
  ('CCC1=C(Nc2ccc(OC)c(OC3CCCC3)c2)CCC1=O', 'yes (1)'),
  ('COc1ccc(NC2=CC(=O)CC2)cc1OCC1(c2ccccc2)CC1', 'no (0)'),
  ('COc1ccc(N(C)C2=CC(=O)CCC2)cc1OC1CCCC1', 'yes (1)'),
  ('COc1ccc(N(Cc2ccccc2)C2=CC(=O)CC2)cc1OC1CCCCC1', 'yes (1)'),
  ('CCCN(C1=CC(=O)CC1)c1ccc(OC)c(OC2CCCC2)c1', 'no (0)'),
  ('COc1ccc(N(Cc2ccncc2)C2=CC(=O)CC2)cc1OC1Cc2ccccc2C1', 'yes (1)'),
  ('COc1ccc(N(C)C2=CC(=O)CC2)cc1OC1Cc2ccccc2C1', 'no (0)'),
  ('COc1ccc(N(C)C2=C(C)C(=O)CC2)cc1O[C@@H]1C[C@H]2CC[C@@H]1C2 (racemic)', 'no (0)'),
  ('COc1ccc(N(Cc2cccnc2)C2=CC(=O)CC2)cc1OC1CCCC1', 'yes (1)'),
  ('COc1ccc(N(Cc2ccccn2)C2=CC(=O)CCC2)cc1OC1Cc2ccccc2C1', 'no (0)'),
  ('COc1ccc(NC2=C(C)C(=O)CC2)cc1O[C@@H]1C[C@H]2CC[C@@H]1C2 (racemic)', 'yes (1)'),
  ('COc1ccc(N(Cc2ccc3ccccc3c2)C2=CC(=O)CCC2)cc1OC1Cc2ccccc2C1', 'no (0)'),
  ('COc1ccc(NC2=C(C)C(=O)CC2)cc1OCC1(c2ccccc2)CC1', 'no (0)');

###

Test system: TPA induced ear edema in mouse
procedure details: TPA induced mouse ear edema assay
Type: in vivo, mouse (male ICR)
conditions used: 0.1 mg applied to right ear immediately after TPA; 6 hour
readout type: % Inhibition of ear edema (%)

INSERT INTO results (compound, unit_of_measure, reported_measurement) VALUES
  ('COc1ccc(NC2=C(Cc3ccccc3)C(=O)CC2)cc1OC1CCCC1', '%', 81.7),
  ('COc1ccc(N(C)C2=CC(=O)CC2)cc1OC1CCCC1', '%', 82.0),
  ('COc1ccc(N(C2=CC(=O)CC2)C2CCCC2)cc1OC1CCCC1', '%', 78.5),
  ('COc1ccc(N(Cc2ccc3ccccc3c2)C2=CC(=O)CC2)cc1OC1CCCCC1', '%', 89.7),
  ('COc1ccc(NC2=C(C)C(=O)CCC2)cc1OC1CCCCC1', '%', 70.8),
  ('COc1ccc(NC2=C(C)C(=O)CC2)cc1OCCc1ccccc1', '%', 52.5),
  ('COc1ccc(NC2=CC(=O)CCC2)cc1OC1Cc2ccccc2C1', '%', 76.3),
  ('COc1ccc(NC2=CC(=O)NCC2)cc1O[C@H]1C[C@@H]2CC[C@H]1C2 (relative stereo)', '%', 73.0),
  ('COc1ccc(N(Cc2ccccc2)C2=CC(=O)CCC2)cc1OC1Cc2ccccc2C1', '%', 72.8),
  ('CCCCOc1cc(NC2=CC(=O)CC2)ccc1OC', '%', 57.1),
  ('COc1ccc(N(Cc2ccncc2)C2=CC(=O)CC2)cc1OC1CCCC1', '%', 71.5),
  ('COc1ccc(NC2=C(C)C(=O)CC2)cc1OC1CCOC1 (centres unmarked)', '%', 51.8),
  ('COc1ccc(N(Cc2ccccc2)C2=CC(=O)CCC2)cc1O[C@@H]1C[C@H]2CC[C@@H]1C2 (relative stereo)', '%', 71.8),
  ('COc1ccc(N(Cc2ccc3ccccc3c2)C2=CC(=O)CC2)cc1OC1Cc2ccccc2C1', '%', 89.0),
  ('COc1ccc(NC2=CC(=O)CCC2)cc1O[C@@H]1C[C@H]2CC[C@@H]1C2 (relative stereo)', '%', 70.5),
  ('COc1ccc(N(Cc2ccccc2)C2=CC(=O)CC2)cc1OC1CCCC1', '%', 78.4),
  ('COc1ccc(NC2=CC(=O)CC2)cc1OC1CCCCC1', '%', 51.8);
